target: AICARFT (Homo sapiens); assay: MS detection of ZMP in low folate media cultured NCI-H460 cells; assay type: cell-based; set-up: endogenous in cells; host or cells: NCI-H460; settings: Mean ± SEM; ZMP concentration by LC-MS, NCI-H460 cells in low folate media, 16 hours
Sequence (P31939 whole entry): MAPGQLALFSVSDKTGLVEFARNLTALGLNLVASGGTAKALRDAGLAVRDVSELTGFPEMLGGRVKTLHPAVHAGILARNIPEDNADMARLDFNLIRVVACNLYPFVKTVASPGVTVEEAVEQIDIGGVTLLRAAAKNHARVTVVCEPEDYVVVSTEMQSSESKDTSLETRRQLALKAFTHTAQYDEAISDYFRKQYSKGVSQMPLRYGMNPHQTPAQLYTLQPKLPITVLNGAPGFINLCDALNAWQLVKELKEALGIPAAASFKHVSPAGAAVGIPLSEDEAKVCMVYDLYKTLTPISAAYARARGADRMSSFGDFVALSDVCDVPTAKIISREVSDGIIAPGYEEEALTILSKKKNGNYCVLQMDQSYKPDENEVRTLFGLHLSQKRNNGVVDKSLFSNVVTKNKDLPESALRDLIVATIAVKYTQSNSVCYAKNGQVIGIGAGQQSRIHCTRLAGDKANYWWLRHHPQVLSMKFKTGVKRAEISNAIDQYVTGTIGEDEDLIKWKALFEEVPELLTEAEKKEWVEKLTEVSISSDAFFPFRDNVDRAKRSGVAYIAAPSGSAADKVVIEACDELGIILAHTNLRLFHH
pIC50: −log10 of the molar value.
MEASUREMENT_LABEL: pIC50

Here is how some compounds turned out for pIC50.
# COMPOUND, MEASUREMENT_LABEL, READOUT_VALUE
records = [
    ("O=c1[nH]ccc2cc(F)c(NS(=O)(=O)c3ccc(N4C[C@@H](O)[C@@H](F)C4)s3)cc12 (single isomer, unassigned) [Example 33]", "pIC50", 8.10),
    ("O=c1[nH]ccc2cc(F)c(NS(=O)(=O)c3ccc(N4C[C@@H](O)C(F)(F)C4)s3)cc12 [Example 41]", "pIC50", 7.37),
    ("CCC1(C)CC(c2ccc(S(=O)(=O)Nc3cc4c(=O)[nH]ccc4cc3F)s2)=CNC1=O (single isomer, unassigned; isomer 1) [Example 84]", "pIC50", 8.00),
]

A = CC1(C)CC(c2ccc(S(=O)(=O)Nc3cc4c(=O)[nH]ccc4cc3F)s2)=CNC1=O [Example 81]
B = O=c1[nH]ccc2cc(F)c(NS(=O)(=O)c3ccc([C@@H]4CC[C@@H](O)C4)s3)cc12 (single isomer, unassigned) [Example 46]
Which shows the larger pIC50 value: A or B ? Label of pick, please.
A

----------
biological target: AICARFT (Homo sapiens); assay: AICARFT enzyme assay (LC-MS of IMP and ZMP); type: biochemical; design: made in house; host or cells: E. coli BL21(DE3); settings: Mean ± SEM; 25 μM ZMP, 100 μM 10-F-THFA, 3 nM ATIC enzyme, 1 hour at room temperature
A collection of compounds and their measured IC50
Entry rule: numbers only, all in nM.

# COMPOUND, SYSTEM_TESTED, IC50, nM
measured = [
    ("O=c1[nH]ccc2cc(F)c(NS(=O)(=O)c3ccc([C@@H]4CC[C@@H](O)C4)s3)cc12 (single isomer, unassigned) [Example 46]", "AICARFT (Homo sapiens)", 29.1),
]

Specify measured IC50 for O=c1[nH]ccc2cc(F)c(NS(=O)(=O)c3ccc(N4C[C@@H](O)C(F)(F)C4)s3)cc12 [Example 41] .
10.6

Specify measured IC50 for O=c1[nH]ccc2cc(F)c(NS(=O)(=O)c3ccc(N4C[C@@H](O)[C@@H](F)C4)s3)cc12 (single isomer, unassigned) [Example 33] .
7.75
